The reported measurements were obtained from paper PMC7344390.

- Test system: PNT2 cells (human prostate non-cancer cells)
- Assay overview: In vitro MTT-based drug sensitivity assay, PNT2 cells
- Conditions: 72 h treatment, read-out: IC50 (cell viability, MTT)
For each of the molecules below, state its IC50.
Answers are plain numbers, in µM.

[[record]]
molecule = "CC1=CCC(C)(C)C=CC(=O)C(CO)=CC(O)C1 (stereo not drawn) [Compound 1, 4-oxohumula-2E,5E,9E-trien-7S,12-diol]"
assay_system = "PNT2 cells (human prostate non-cancer cells)"
units_symbol = "µM"
test_result = 35.8


### Prompt Using PNT2 cells (human prostate non-cancer cells) as the test system, report measured IC50 of COc1cccc2c1C(=O)c1c(O)c3c(c(O)c1C2=O)C[C@@](O)(C(=O)CO)C[C@@H]3O[C@H]1C[C@H](N)[C@H](O)[C@H](C)O1 [Doxorubicine] .
### Response 1.12
